Observed GI50 values for Pancreas BXPC-3 are listed in what follows.
parameter: GI50 (µg/mL)

molecule | quantitative.readout
COc1ccc(/C=C\c2cc(Br)c(OC)c(OC)c2)cc1O [Compound 13a] | 0.16
COc1ccc(/C=C/c2cc(Cl)c(OC)c(OC)c2)cc1O [Compound 12b] | 0.59
COc1ccc(/C=C\c2cc(F)c(OC)c(OC)c2)cc1O [Compound 11a] | 0.016
COc1ccc(/C=C\c2cc(I)c(OC)c(OC)c2)cc1O [Compound 14a] | 0.11
COc1ccc(/C=C/c2cc(I)c(OC)c(OC)c2)cc1O [Compound 14b] | 2.7

###

System: Streptococcus pneumoniae
Assay: reference broth microdilution susceptibility assay
Format: cell-based
Conditions: Table III
parameter: Range of minimum inhibitory concentration, Streptococcus pneumoniae (µg/mL)

molecule | quantitative.readout
COc1ccc(/C=C\c2cc(I)c(OC)c(OC)c2)cc1O [Compound 14a] | 64
COc1ccc(/C=C\c2cc(F)c(OC)c(OC)c2)cc1O [Compound 11a] | 64

###

Tested on: Prostate DU-145
// values below are reported GI50
parameter: GI50 (mg/L)

molecule | parameter | censoring.qualifier | quantitative.readout
COc1ccc(/C=C\c2cc(I)c(OC)c(OC)c2)cc1O [Compound 14a] | GI50 | = | 0.00052
COc1ccc(/C=C/c2cc(I)c(OC)c(OC)c2)cc1O [Compound 14b] | GI50 | = | 0.27
COc1ccc(/C=C\c2cc(Br)c(OC)c(OC)c2)cc1O [Compound 13a] | GI50 | < | 0.001
COc1ccc(/C=C/c2cc(Cl)c(OC)c(OC)c2)cc1O [Compound 12b] | GI50 | = | 0.038
COc1ccc(/C=C\c2cc(F)c(OC)c(OC)c2)cc1O [Compound 11a] | GI50 | < | 0.01

Value source: patent US20070167412A1
